Target: T1, human CD25 (NP_000408.1) (Met 1-Cys 213) C-terminally fused with 6-histidine tag (human, UniProt P01589 22-213)
T1 construct: range 1-213; Expressed in CHO-K1 cells; also called human CD25-his
T1 sequence: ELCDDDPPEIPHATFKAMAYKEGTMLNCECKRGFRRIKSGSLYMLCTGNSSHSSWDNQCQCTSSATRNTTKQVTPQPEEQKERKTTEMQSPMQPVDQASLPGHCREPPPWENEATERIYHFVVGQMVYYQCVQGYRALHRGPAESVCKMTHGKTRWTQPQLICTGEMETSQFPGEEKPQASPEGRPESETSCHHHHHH
Experiment: ELISA, human CD25-his coated

BINDER	VALUE_UNIT	EC50
chimeric antibody 2046-2H1L1 (antibody, human IgG1, kappa, V domains shown, Chimeric (murine V, human IgG1/kappa); also called 2046-2ix) VH: DVQLQESGPGLVKPSQSLSLTCTVTGYSITSDYAWNWIRHFPGNKLEWMGYITYSGSTVYNPSLKSRISITRDTSKNHFFLQLNSVTTEDTATYYCARWLLQIYYAMDYWGQGTSVTVSS VL: DVVMTQTPLSLPVSLGDQASISCRSSQSLVHSNGNTYLHWYLQKPGQSPKLLIYKVSNRFSGVPDRFSGSGSGTDFTLKISRVEAEDLGVYFCSQSTHVPLTFGAGTKLELKR	µg/mL	0.105
chimeric antibody 2046-111H2L1 (antibody, human IgG1, kappa, V domains shown, Chimeric, human IgG1/kappa) VH: DVQLQESGPGLVKPSQSLSLTCTVTGHSITSDYAWNWIRQFPGNKLEWMGYISYSGSTIYNPSLKSRISITRDTSKNQFFLQLNSVTTEDTATYYCARWLLQNYYAMDYWGQGTSVTVSS VL: DVVMTQTPLSLPVSLGDQASISCRSSQSLVHSNGNTYLHWYLRKPGQSPKLLIYKVSNRFSGVPDRFSGSGSGTDFTLKISRVEAEDLGVYFCSQSTHVPLTFGAGTKLELKR	µg/mL	0.0989
